System: SK-MEL-2 melanoma
Assay: NCI tumour cell line growth inhibition, 48 h
Readout Label: TGI

Exam item: Look up TGI: NS(=O)(=O)c1nc(S(=O)(=O)O)c2[nH]cnc2n1
Marked response: > 100 µM

Exam item: Same read-out for C#CC1(O)CCC2C3CCc4cc(Oc5nc(F)nc(-c6c7ccccc7c7n6CCS7)n5)ccc4C3CC[C@@]21C (some centres undefined) ?
Marked response: 23.9 µM

Exam item: Same read-out for N#CC(CCN1CCC(Nc2ccccc2)(c2nnnn2C2CCCCC2)CC1)(c1ccccc1)c1ccccc1 ?
Marked response: > 100 µM

Exam item: Same read-out for N#C/C(=C/C=C/c1ccco1)C(N)=O ?
Marked response: > 10 µM

Exam item: Same read-out for COC(=O)C1=C(OC(=O)/C(=C/c2ccccc2)c2ccc(OC)cc2)C(C(=O)OC)[C@@]2(O)[C@@H](C(=O)OC)[C@H](C)C[C@@H]1[C@@H]2C(=O)OC (some centres undefined) ?
Marked response: > 100 µM

Exam item: Same read-out for C=CC(=O)N1CCC(c2ccc(C(N)=O)c(-c3ccc(Oc4ccccc4)cc3)n2)CC1 ?
Marked response: > 100 µM

Exam item: Same read-out for CC(C)/C=C1\CCC(CN2CCOCC2)C1=O (centres undefined) ?
Marked response: 35.6 µM

Exam item: Same read-out for COc1cc(CNc2nc3c(N)cc(C(F)(F)F)cc3nc2-c2ccccc2)cc(OC)c1OC ?
Marked response: > 100 µM

Exam item: Same read-out for Cc1ccc(S(=O)(=O)N2C[C@@H]3CC[C@]4(CO[Si](C)(C)C(C)(C)C)N[C@@H](c5ccccc5)[C@H]2[C@H]34)cc1 ?
Marked response: > 100 µM
